Assign log10 of IC50 to each entry below.
tgt: His-tagged recombinant human AXL cytoplasmic domain (Homo sapiens, UniProt P30530)
Construct: His-tagged recombinant human AXL cytoplasmic domain
Sequence (P30530 473-894 limits assumed): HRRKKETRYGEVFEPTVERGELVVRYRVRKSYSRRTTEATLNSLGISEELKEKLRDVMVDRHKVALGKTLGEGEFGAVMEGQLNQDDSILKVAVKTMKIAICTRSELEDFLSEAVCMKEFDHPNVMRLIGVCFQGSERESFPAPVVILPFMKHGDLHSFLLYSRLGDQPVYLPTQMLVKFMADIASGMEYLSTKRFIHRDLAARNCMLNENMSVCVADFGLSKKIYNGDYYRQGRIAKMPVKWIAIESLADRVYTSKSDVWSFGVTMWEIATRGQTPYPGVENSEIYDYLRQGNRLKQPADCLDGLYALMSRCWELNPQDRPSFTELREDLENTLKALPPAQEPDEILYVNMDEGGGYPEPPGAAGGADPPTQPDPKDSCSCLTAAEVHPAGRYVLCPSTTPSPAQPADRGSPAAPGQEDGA
assayRemarks: AXL Enzyme Assay (LanthaScreen Eu Kinase Binding)
conditionSummary: averaged IC50; 60-minute incubation at 22° C.; TR-FRET
Short version: log10 scale, IC50, nM.

Would you please look over these solved cases?
> print(dat)
                            substancesmiles  testresult
1  CCOc1ccc2c(Oc3ccc(NC(=O)c4cn(C(C)C)cc(-c5ccc(F)cc5)c4=O)nc3)ccnc2c1        0.60
2  COc1cc2nccc(Oc3ccc(NC(=O)c4cn(C(C)C)c(C)c(-c5ccc(F)cc5)c4=O)nc3)c2cc1OC        0.00
3  CCCn1cc(C(=O)Nc2ccc(Oc3ccnc4cc(OC)c(OC)cc34)cn2)c(=O)c(-c2ccc(F)cc2)c1        0.60
4  CCn1cc(C(=O)Nc2ccc(Oc3ccnc4cc(OC)c(OC)cc34)cn2)c(=O)c(-c2ccc(F)cc2)c1        0.00
5  CCOc1ccc2nccc(Oc3ccc(NC(=O)c4cn(C(C)C)cc(-c5ccc(F)cc5)c4=O)nc3)c2c1        0.70
6  COc1cc2nc(C)cc(Oc3ccc(NC(=O)c4cn(C(C)C)cc(-c5ccc(F)cc5)c4=O)nc3)c2cc1OC        2.65
7  COc1cc2c(Oc3ccc(NC(=O)c4cn(C(C)C)cc(-c5ccc(F)cc5)c4=O)nc3)ccnc2cc1OCCCN1CCOCC1        0.48
8  COc1cc2nccc(Oc3ccc(NC(=O)c4cn(CC(=O)N5CCOCC5)cc(-c5ccc(F)cc5F)c4=O)nc3)c2cc1OC        0.30

Look up log10 of IC50 for the entries below, preserving their order.
1. COc1cc2nccc(Oc3ccc(NC(=O)c4cn(C(C)C)cc(-c5ccc(F)c(Cl)c5)c4=O)nc3)c2cc1OC
2. COc1cc2c(Oc3ccc(NC(=O)c4cn(C(C)C)cc(-c5ccc(F)cc5)c4=O)nc3)ccnc2cc1F
3. COc1cc2nccc(Oc3ccc(NC(=O)c4cn(C(C)C)cc(-c5ccc(F)cc5)c4=O)cn3)c2cc1OC
4. COc1cc2nccc(Oc3ccc(NC(=O)c4cn(CCC(C)C)cc(-c5ccc(F)cc5)c4=O)nc3)c2cc1OC
5. COc1cc2nccc(Oc3ccc(NC(=O)c4cn(C(C)C)cc(-c5ccc(F)cc5C)c4=O)nc3)c2cc1OC
6. COc1ccc2nccc(Oc3ccc(NC(=O)c4cn(C)cc(-c5ccc(F)cc5)c4=O)nc3)c2c1

1: 1.00; 2: 0.00; 3: 0.00; 4: 0.30; 5: 0.30; 6: 0.70

Source of measurements: patent US20200216416A1
